Target: T1, Human SORT1 (78-755)-His (Acrobiosystems) (human, UniProt Q99523 78-755)
T1 construct: range 78-755; Amine-coupled to a CM5 chip in the SPR assay; not shown: His tag
T1 sequence (looked up): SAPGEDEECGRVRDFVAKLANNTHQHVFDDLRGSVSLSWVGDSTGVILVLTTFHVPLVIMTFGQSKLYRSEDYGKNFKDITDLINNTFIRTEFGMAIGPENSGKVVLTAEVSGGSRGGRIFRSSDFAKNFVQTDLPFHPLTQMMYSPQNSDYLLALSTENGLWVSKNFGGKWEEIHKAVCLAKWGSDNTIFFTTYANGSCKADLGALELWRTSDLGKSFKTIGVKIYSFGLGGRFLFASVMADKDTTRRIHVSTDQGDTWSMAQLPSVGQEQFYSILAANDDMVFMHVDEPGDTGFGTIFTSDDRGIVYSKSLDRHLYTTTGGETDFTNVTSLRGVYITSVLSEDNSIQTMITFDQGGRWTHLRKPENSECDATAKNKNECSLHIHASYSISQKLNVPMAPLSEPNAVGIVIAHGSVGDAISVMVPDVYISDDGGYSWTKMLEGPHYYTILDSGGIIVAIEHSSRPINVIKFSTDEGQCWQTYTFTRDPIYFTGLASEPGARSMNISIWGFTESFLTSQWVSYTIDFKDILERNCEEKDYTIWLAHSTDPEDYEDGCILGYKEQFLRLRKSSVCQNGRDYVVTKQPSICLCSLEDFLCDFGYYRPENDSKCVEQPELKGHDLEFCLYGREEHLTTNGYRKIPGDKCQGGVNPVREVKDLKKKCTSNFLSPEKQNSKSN
Assay: SPR (Biacore 8K), SORT1 amine-coupled to CM5 chip, PDC as analyte, 1:1 kinetic model
pKd: −log10 of the molar value. *1 amine or outer side, *2 acyl side, *3 side chain or, on linkers, in order; H or OH if unused. Bridges are numbered along the chain shown (N, C = ends). Side-chain parts run from the residue outwards. [ ]: non-standard residue; d: D form. VCPAB = valine-citrulline p-aminobenzylcarbamate linker, CC(C)[C@H](N[*:1])C(=O)N[C@@H](CCCNC(N)=O)C(=O)Nc1ccc(COC(=O)[*:2])cc1; tBuAla = CC(C)(C)C[C@H](N)C(=O)O; MMAE = monomethyl auristatin E; Tle = CC(C)(C)[C@H](N)C(=O)O; Nle = CCCC[C@H](N)C(=O)O; βAla = NCCC(=O)O; Sar = CNCC(=O)O

binder | pKd
Ac-RWCENK([Sar-Sar-Sar-Sar-βAla-VCPAB-MMAE])R[Nle]FTCRQ[Tle][tBuAla]-OH (disulfide 3-11, C-term COOH) [Arb_cyclic_G23-PDC] | 9.05
